Origin of measurements: patent US9216999B2

Biological target: JAK3 (Homo sapiens (Human))
Sequence (P52333 whole entry): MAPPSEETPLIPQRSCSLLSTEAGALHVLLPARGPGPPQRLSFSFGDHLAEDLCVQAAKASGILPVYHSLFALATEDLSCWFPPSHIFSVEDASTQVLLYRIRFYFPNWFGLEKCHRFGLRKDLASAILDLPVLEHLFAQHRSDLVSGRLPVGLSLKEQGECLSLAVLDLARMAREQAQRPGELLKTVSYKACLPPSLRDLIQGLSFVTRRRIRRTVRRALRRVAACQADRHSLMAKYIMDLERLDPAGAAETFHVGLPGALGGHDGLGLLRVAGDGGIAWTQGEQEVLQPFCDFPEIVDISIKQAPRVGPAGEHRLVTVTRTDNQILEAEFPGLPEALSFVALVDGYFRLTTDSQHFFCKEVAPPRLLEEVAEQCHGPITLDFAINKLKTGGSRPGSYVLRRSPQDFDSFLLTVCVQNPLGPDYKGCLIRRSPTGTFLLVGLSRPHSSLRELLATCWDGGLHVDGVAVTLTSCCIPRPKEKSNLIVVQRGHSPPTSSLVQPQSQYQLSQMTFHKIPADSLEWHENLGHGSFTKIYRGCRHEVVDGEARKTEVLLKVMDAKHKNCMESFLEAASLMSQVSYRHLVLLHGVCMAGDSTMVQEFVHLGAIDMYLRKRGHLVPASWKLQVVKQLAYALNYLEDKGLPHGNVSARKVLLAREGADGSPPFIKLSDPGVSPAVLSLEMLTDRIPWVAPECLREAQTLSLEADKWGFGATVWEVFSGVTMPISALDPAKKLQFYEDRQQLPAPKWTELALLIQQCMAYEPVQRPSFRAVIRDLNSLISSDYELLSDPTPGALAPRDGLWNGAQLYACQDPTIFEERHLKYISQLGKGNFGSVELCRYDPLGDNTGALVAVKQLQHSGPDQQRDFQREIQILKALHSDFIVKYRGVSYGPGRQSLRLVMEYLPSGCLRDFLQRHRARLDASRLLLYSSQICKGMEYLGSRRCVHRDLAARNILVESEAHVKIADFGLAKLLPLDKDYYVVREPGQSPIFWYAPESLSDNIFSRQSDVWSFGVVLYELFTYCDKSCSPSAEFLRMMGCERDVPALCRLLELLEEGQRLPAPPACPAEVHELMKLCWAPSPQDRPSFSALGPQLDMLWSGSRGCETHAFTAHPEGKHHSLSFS
Assay: Enzyme assay (Assay Example^a 1), JAK3
Type: biochemical
Quick reference for IC50 among some compounds

Some entries whose results are on file:
Brc1cc(CN2CCC(c3nnn4cnc5[nH]ccc5c34)CC2)sc1Br
> 1 µM
Cc1cc(OC(F)(F)F)ccc1NC1CCC(c2nnn3cnc4[nH]ccc4c23)CC1 (stereo not drawn)
> 1 µM

Here is another compound to look at.
Input line: Would you kindly share the measured IC50 for Fc1ccc(NC[C@H]2CC[C@H](c3nnn4cnc5[nH]ccc5c34)CC2)c(C(F)(F)F)c1 ?
Output line: > 1 µM

====

# IC50 per record follows
Biological target: Tyk2 (Homo sapiens (Human), UniProt P29597)
Sequence (P29597 whole entry): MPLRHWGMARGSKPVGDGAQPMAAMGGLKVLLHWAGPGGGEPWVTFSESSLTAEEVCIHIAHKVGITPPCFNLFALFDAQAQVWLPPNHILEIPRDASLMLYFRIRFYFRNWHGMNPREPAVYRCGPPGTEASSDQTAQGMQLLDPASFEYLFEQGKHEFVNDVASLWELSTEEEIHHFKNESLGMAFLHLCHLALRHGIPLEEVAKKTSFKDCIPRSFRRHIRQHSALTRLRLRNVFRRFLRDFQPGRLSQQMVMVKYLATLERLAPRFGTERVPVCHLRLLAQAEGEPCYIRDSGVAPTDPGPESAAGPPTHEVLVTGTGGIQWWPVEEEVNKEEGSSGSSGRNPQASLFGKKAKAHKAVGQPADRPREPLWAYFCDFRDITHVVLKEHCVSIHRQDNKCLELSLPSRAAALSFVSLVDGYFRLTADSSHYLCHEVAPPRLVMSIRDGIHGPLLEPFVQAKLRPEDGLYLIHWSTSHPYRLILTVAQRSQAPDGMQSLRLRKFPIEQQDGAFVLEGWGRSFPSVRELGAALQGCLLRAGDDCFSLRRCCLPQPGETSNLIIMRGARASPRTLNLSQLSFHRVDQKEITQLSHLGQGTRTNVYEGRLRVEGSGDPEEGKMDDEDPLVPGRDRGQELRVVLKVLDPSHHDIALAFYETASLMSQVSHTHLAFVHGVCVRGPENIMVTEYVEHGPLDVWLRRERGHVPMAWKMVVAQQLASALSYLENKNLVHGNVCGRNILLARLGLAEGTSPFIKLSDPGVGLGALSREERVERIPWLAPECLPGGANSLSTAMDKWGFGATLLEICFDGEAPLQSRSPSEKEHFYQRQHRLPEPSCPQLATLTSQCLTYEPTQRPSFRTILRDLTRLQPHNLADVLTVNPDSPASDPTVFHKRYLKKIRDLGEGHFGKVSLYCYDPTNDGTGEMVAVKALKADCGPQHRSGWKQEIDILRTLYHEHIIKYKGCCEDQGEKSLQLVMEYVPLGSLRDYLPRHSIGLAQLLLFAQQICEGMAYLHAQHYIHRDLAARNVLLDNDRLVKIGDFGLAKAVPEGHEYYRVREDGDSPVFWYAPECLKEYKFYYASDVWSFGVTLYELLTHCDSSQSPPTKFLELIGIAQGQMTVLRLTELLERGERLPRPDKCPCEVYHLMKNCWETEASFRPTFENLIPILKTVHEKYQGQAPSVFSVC
Assay: Enzyme assay (Assay Example^a 1), Tyk2
Assay type: biochemical
Settings: ATP 100 μM; Table^a 154

Below: 2 compounds and their reported IC50.
FC(F)(F)c1cc(CN2CCC(c3nnn4cnc5[nH]ccc5c34)CC2)cc(C(F)(F)F)c1
> 1 µM
Cc1cc(OC(F)(F)F)ccc1NC[C@H]1CC[C@H](c2nnn3cnc4[nH]ccc4c23)CC1
> 1 µM

Then there is this compound:
Input line: Give IC50 (Tyk2 (Homo sapiens (Human), UniProt P29597)) of the following compound: O=C(Nc1ccc(F)cc1)[C@H]1CC[C@H](c2nnn3cnc4[nH]ccc4c23)CC1
Output line: > 1 µM
